# Tested on: Mycosphaerella graminicola; Anamorph: Septoria tritici; Bayer Code SEPTTR
# PROTOCOL_NOTES: Leaf blotch of wheat, foliar fungicide treatment, one day protectant (1DP) or three day curative (3DC)
# Type: in vivo, Septoria tritici on wheat plants (variety Yuma)
# CONDITION_SUMMARY: Zymoseptoria tritici, 72 h, three day curative (3DC), 25 ppm, percent control rating, read-out: SEPTTR 3DC 25 ppm
As shown below, each of these molecules has a reported pest or weed control at 25 ppm value.

Would you please look over these solved cases?
COc1ccc(CONc2nc(OC)ncc2F)cc1 [Compound 1076]: 0 to 25%
Cc1ccc(COc2ncc(F)c(NNc3ccccc3F)n2)cc1 [Compound 1039]: 0 to 25%
Nc1nc(ON=C(C2CC2)C2CC2)ncc1F [Compound 998]: 76 to 100%
C=CCOC(=O)Nc1nc(OCc2ccc(F)cc2)ncc1F [Compound 985]: 76 to 100%

-- ask # input molecule: CCOC(=O)CNC(=O)Nc1nc(O)ncc1F [Compound 976] ; wanted: its pest or weed control at 25 ppm
-- reply 0 to 25%

-- ask # input molecule: COc1cccc(COc2ncc(F)c(NNc3cc(C)nc(C)n3)n2)c1 [Compound 1032] ; wanted: its pest or weed control at 25 ppm
-- reply 0 to 25%
